Origin of the recorded values: PubChem BioAssay (NCI)

# Tested on: SF-539 CNS
# assay text: NCI tumour cell line growth inhibition, 48 h
The molecules listed here are annotated with their TGI.

{"columns": ["molecule", "measured result"],
 "data": [
  ["C/C(CN1C(=O)c2ccccc2C1=O)=N\\NS(=O)(=O)c1ccc(F)cc1", "> 100 µM"],
  ["NC(=O)CCC(NC(=O)C(F)(F)F)C(=O)O (stereo not drawn)", "> 100 µM"],
  ["COC(=O)/C(=N\\O)C(C(=O)C=C(C)C)C(=O)C(=O)Nc1ccccc1C (stereo not drawn)", "> 100 µM"],
  ["CC1=NN(c2ccccc2)C(=O)C1N=Nc1ccc(Br)c(C)c1 (stereo not drawn)", "> 100 µM"],
  ["CN(C)CCOc1nc2ccccc2c2c1-c1ccc(Cl)cc1C2=O", "2.59 µM"],
  ["O=S(Cc1cc2c(cc1Br)OCO2)c1ccccc1 (stereo not drawn)", "91.2 µM"]
]}

Please find the next molecule below.
In: Requested field: TGI. Item: "CCOC(=O)[C@H]1C[C@]23CN(C(=O)OC(C)(C)C)CC[C@H]2CCC2(SCCCS2)[C@@H]3N1C"
Out: > 100 µM
